Reference source for all entries: patent US20190367619A1

Target: T1, human galectin-10-His (recombinant human galectin-10 with TEV-cleavable N-terminal His-tag) (human)
T1 construct: SEC-MALLS: dimer in solution; also called Gal10-His; humanGal10-His
T1 chain: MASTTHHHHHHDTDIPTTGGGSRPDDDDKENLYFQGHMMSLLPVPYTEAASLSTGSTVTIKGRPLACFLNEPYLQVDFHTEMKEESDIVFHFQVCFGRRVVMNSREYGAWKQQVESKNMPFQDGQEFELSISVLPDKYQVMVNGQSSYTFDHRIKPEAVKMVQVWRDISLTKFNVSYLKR
Experiment: SPR Biacore T3000, scFv-hFc captured by anti-human Fc, galectin-10-His as analyte
# reported koff; entries follow
Respond numerically; units are s⁻¹ and should not be typed.

Worked cases, answers included:
4H10 scFv-human Fc (Fc fusion, about 100 kDa on SDS-PAGE; also called 4H10 ScFv-hFc; not shown: CH2-CH3 constant domains of human IgG1 (vector pUPEX50)) scFv: QVQLVESGGGLVQPGGSLRLSCAASGFTFDDYAMSWVRQAPGKGLEWVSAISWNGGSTYYAESMKGRFTISRDNAKNTLYLQMNSLKSEDAAVYYCAKDLSASGSYYHTFGSWGQGTQVTVSSGGGGSGGGGSGGGGSQAGLTQPPSVAGTLGKTVTISCAGTSSDVGYGDYVSWYQHIPGTAPKLLIYKVKTRASGIPDRFSGSKSGNTASLTISGLQSGDESDYYCASYKNGGTAVFGGGTHLTVL = 0.00277
3A03 scFv-human Fc (Fc fusion, about 100 kDa on SDS-PAGE; also called 3A03 ScFv-hFc; not shown: CH2-CH3 constant domains of human IgG1 (vector pUPEX50)) scFv: QVQLVESGGGLVQPGGSLRLSCATSGFTFSVYAMSWVRQAPGKGLEWVADINTSGDSTTYADSVKGRFTISRDNAKNTLYLQMNSLKPEDTAVYYCANRYTQERGQGTQVTVSSGGGGSGGGGSGGGGSDVVLTQTPGSLSVVPGEAASISCKPGRTLVHTDGRTYLYWLQQKPGQRPQLLIYQVSNRGSGVPDRFTGSGSGTDFTLKISGVKAEDAGVYYCAQATYYPLTFGSGTRLEIK = 0.0111
6F11 scFv-human Fc (Fc fusion, about 100 kDa on SDS-PAGE; also called 6F11 ScFv-hFc; not shown: CH2-CH3 constant domains of human IgG1 (vector pUPEX50)) scFv: QVQRQESGPGLVKPSQTLSVTCTVSGGSITTGPYSWSWIRQPPGKGLEWIGYIGYSGSTYYSPSLKSRTSISRDTSNNQFSLQLSSVTPEDTAVYYCARSRSSPTTFGMDYWGKGTLVTVSSGGGGSGGGGSGGGGSSSALTQPSAVSVSLGQTARITCQGGDFGRYYVAWYTQKPGQAPVLVIYQDSERPSGIPERFSGSSSGDTATLTISGAQAEDEAEYYCQSGISSDNIVFGGGTHLTVL = 0.0172

Moving on to the next binder.
Lookup: Item under review: 6F05 scFv-human Fc (Fc fusion, about 100 kDa on SDS-PAGE; also called 6F5; 6F05 ScFv-hFc; not shown: CH2-CH3 constant domains of human IgG1 (vector pUPEX50)) scFv: QLQLVESGGGLVQPGGSLRLSCAASGFTFSSYAMSWVRQAPGKGLEWVSAINSGGGSTSYADSVKGRFTISRDNAKNTLYLQMNSLKPEDTAVYYCATPGDRLWYYRYDYWGQGTQVTVSSGGGGSGGGGSGGGGSQAGLTQPPSVSGTLGKAVTISCAGTSSDIGYGNYVSWYQQLPGTAPKLLIYKVSRRASGVPDRFSGSKSGNTASLSISGLQSEDEADYYCASYRYRNNVVFGGGTHLTVL . Reported koff?
Found: 0.000117
